assay: method code SF-AS, from DOI: 10.1002/ardp.19903230114, PMID: 2334269; details: pH 7.4
measurement-label: logD

CCCOC1(c2ccccc2)CN2CCCCC2CO1 (configuration not stated) :: 1.92
CCOC1(c2ccccc2)CN2CCCCC2CO1 (configuration not stated) :: 1.87
CC(C)COC1(c2ccccc2)CN2CCCCC2CO1 (configuration not stated) :: 1.95
CCCCOC1(c2ccccc2)CN(CCCC)CCO1 (configuration not stated) :: 2.13
CCCOC1(c2ccccc2)CN(C)C2CCCCC2O1 (configuration not stated) :: 1.91
CCCCN1CCOC(OCC)(c2ccccc2)C1 (configuration not stated) :: 2
CN1CC(O)(c2ccccc2)OC2CCCCC21 (configuration not stated) :: 1.81
CCCCN1CCOC(OCCC)(c2ccccc2)C1 (configuration not stated) :: 2.03
c1ccc(COC2(c3ccccc3)CN3CCCCC3CO2)cc1 (configuration not stated) :: 1.95
CCCCOC1(c2ccccc2)CN2CCCCC2CO1 (configuration not stated) :: 1.94
CCCCCOC1(c2ccccc2)CN(C)C2CCCCC2O1 (configuration not stated) :: 2.05
OC1(c2ccccc2)CN2CCCCC2CO1 (configuration not stated) :: 1.77
